assayed target: Prostaglandin E2 receptor EP2 subtype (Homo sapiens) (UniProt P43116)
Sequence (P43116 whole entry, looked up): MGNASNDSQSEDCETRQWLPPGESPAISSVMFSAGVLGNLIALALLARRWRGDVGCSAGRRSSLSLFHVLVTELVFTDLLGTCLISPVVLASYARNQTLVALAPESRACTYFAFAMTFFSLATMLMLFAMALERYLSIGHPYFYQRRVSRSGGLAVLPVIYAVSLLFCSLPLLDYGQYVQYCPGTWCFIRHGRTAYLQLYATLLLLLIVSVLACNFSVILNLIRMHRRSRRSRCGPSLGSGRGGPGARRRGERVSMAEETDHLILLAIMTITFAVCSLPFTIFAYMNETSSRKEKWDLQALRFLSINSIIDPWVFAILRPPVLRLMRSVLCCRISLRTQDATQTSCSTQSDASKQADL
assay info: EP2 receptor modulators, dose response, cell-based, human EP2, PGE2 EC50 shift (AID 1421)
condition summary: EP2-expressing cells, PGE2 EC50 shift by compound; measured here: PGE2 EC50 at 6.7 uM compound
Mark satisfied only when PGE2 EC50 with compound stays strictly below 1 nM. Values equal to the cut-off are not satisfied.

compound	group label
Cc1cccc(C)c1N1CCN(c2ccc3nnc(C(F)(F)F)n3n2)CC1	satisfied
COc1cc(/C=C2\SC(=S)N(Nc3ncc(C(F)(F)F)cc3Cl)C2=O)ccc1O	not satisfied
S=C1NCCc2ccc(Cl)cc2C1c1ccccc1 (stereo not given)	not satisfied
CC1CCc2c(sc(N)c2C(=O)OC(C)C)C1 (stereo not given)	satisfied
C=CCC1(C)C(=O)N(c2ccccc2)c2ccccc21 (stereo not given)	not satisfied

IN: Does CCOC(=O)COc1cc(Br)c(/C=N/Nc2ccccc2)cc1OC have PGE2 EC50 with compound strictly under 1 nM?
OUT: not satisfied

IN: Does CC(C)OC(=O)CSc1nc(Cc2ccccc2)nc2ccccc12 have PGE2 EC50 with compound strictly under 1 nM?
OUT: not satisfied

IN: Does CCOC(=O)c1c(-c2cccs2)csc1NC(=O)COC(=O)c1c(C)noc1C have PGE2 EC50 with compound strictly under 1 nM?
OUT: satisfied

IN: Does O=c1oc2c3c4c(cc2c(C(F)(F)F)c1CCN1CCOCC1)CCCN4CCC3 have PGE2 EC50 with compound strictly under 1 nM?
OUT: satisfied

IN: Does O=C(Nc1cc(C(F)(F)F)ccc1-n1cncn1)c1ccc(-c2ccccc2)cc1 have PGE2 EC50 with compound strictly under 1 nM?
OUT: not satisfied

Data provenance is PubChem BioAssay AID1421.
